Cited source: the supplement of paper PMC9170038

Listing: apparent KD of K4 kissing-loop reporter of selected sequences
- Tested on: K4 kissing-loop RNA reporter
- assay: apparent KD of K4 kissing-loop reporter; higher = weaker reporter binding
- measurement_parameters: Eterna round: R107; input ligand: theophylline 20 uM
The answer is to be given in nM; state only the numeric part.

The following sequences have reported results that may help.
# monomer_sequence, apparent KD of K4 kissing-loop reporter, nM
rows = [
    ("UUUAGGAGUGGUGUUGAUUAGGGAGCGGAAGGAGCGCCGAGGAAGGCAGGUAGGUCGCCGGAUUAUAGUGAUGUUAUGAAGAGGG [ExArg.M]", 912),
    ("GGACACUAGGAAACUAGUGUCUCAACUGAAGGAGCGUGAAUAGUCACAGGUAGGUCGCAGUUUGUUAGUGAUGUUGACAUGAGUU [#16 K4 Arginine A Same State]", 439),
]

Next:
[ask] Given the sequence UGUCAUUGGUCGGCCGCCACUACAAGGUCAAAGACCAAAGAGUGAUGUUCUUAGACGAAAGUCAGUAGGACCGGGACCGAUGACU [TrypBS 8 #SwitchBubble #K4Middle] , what is its reported apparent KD of K4 kissing-loop reporter?
[reply] 674

----------
- Test system: MS2 coat protein
- assay: apparent KD of MS2 coat protein; designed switch direction (-1 OFF switch, 1 ON switch): -1; higher = weaker reporter binding
- measurement_parameters: input ligand: none
Listing: apparent KD of MS2 coat protein of selected sequences
The answer is to be given in nM; state only the numeric part.

# monomer_sequence, apparent KD of MS2 coat protein / nM
measured = [
    ("AGCUUUUUGUUUUUGGGUGACAUGAGGAUCACCCAUGUCUUAUGGGCCCAGUAGUAGUAAGAUAGAAGGGACCCACG [-20.8, -41.27, a 31%] (Eterna round: R97, puzzle: Sensor, turn-off variant 1)", 731),
    ("CUGAAUCGAGGAUAUACAUGAGGAUCACCCAUGUAUACUGUCUUGGUGAGAGUCCCGUGUAGAAGGCGACAGGC [EX3 B.6] (Eterna round: R97, puzzle: Exclusion 3)", 35.9),
    ("GCAUCACAUGUCAGGAUAUGCUGUACCUUGGUACAGCAGAAGGGACAUGAGGAUCACCCAUGUGCCUAUGAUGC [JL-BMX4-4.11] (Eterna round: R97, puzzle: Brourd's mod of Exclusion 4)", 59.3),
    ("CCCUCACAUGAGGAUCACCCAUGUCAGGAUAUCCAAGGCGAUCACCAAAAUAAAGCAAGGAGAAGGGACUUGGC [Enona] (Eterna round: R97, puzzle: Exclusion 1)", 41.4),
]

Next:
[ask] Given the sequence UUAACAUGCUGGUGAUCAUACAUGAGGAUCACCCAUGUAACAAGCUUUUUGCUCGUCUUAAUUUAAUUGAUUACUAG [Stov1/8-A1] (Eterna round: R97, puzzle: Sensor, turn-off variant 1) , what is its reported apparent KD of MS2 coat protein?
[reply] 134

----------
- Tested on: MS2 coat protein
- assay: apparent KD of MS2 coat protein; designed switch direction (-1 OFF switch, 1 ON switch): -1; higher = weaker reporter binding
- measurement_parameters: input ligand: FMN 200 uM
Listing: apparent KD of MS2 coat protein of selected sequences
Number first, unit second: that is the form wanted.

The following sequences have reported results that may help.
# monomer_sequence, apparent KD of MS2 coat protein
records = [
    ("AGCUGUGGCCGAGGAUAUGACAUGAGGAUCACCCAUGUACACGAUUAGGCCUGGUAACAGGCUCAUCAGAAGGCGGUCUCAGCA [Eli eng2 - 017] (Eterna round: R96, puzzle: Exclusion NG 2)", "9.77 nM"),
    ("AUCGUGCAGCUUUGCUGUACGAGUACAUGAGGAUCACCCAUGUAGGAUAUGGUACGCUUUGCGUGCUAGAAGGAUAUGCGAUUU [EX ENG3 1.47] (Eterna round: R96, puzzle: Exclusion NG 3)", "31.4 nM"),
]

[ask] Given the sequence GCGCCAUCGUGAGAUGGCGUAUAUACAUGAGGAUCACCCAUGUAGGAUAUCGAUUGCUUUGCAGUCGAGAAGGGCGUGUAAUUU [JL ENG3 3.92] (Eterna round: R96, puzzle: Exclusion NG 3) , what is its reported apparent KD of MS2 coat protein?
[reply] 45.7 nM

----------
- Tested on: K4 kissing-loop RNA reporter;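 further: bound reporter read as fluorescence of individual clusters on recovered sequencing chips by microscopy, with normalized cluster intensities fitted with a binding model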
- assay: apparent KD of K4 kissing-loop reporter; higher = weaker reporter binding
- measurement_parameters: Eterna round: R107; input ligand: FMN 200 uM
Listing: apparent KD of K4 kissing-loop reporter of selected sequences

The following sequences have reported results that may help.
# monomer_sequence, assay_target, apparent KD of K4 kissing-loop reporter
records = [
    ("AGAUUCGACACGGCCGCCACUUCCGGUGGCUGGUGUCAUGGUGCGCGUGAGUGAUGUUUAUGUGGGAGGACCGGGUGUUGAGUCU [whbob_Ex_Tryp_B_w42]", "K4 kissing-loop RNA reporter", "616 nM"),
    ("AGACUACCACACUGUCAAUAGACAGUGAGGUAGGAUAUGCUGAAAAGCAGAAGGACCAGUGAUGUUGGUAGGUAGUCAAAAUAAA [FmnAX 11 #SwitchBubble #StaticStem #K4Early]", "K4 kissing-loop RNA reporter", "185 nM"),
    ("GGUAGCAUGGCGGCCGCCACUACCUAGUGAUGUUAGGCUGUGGACAUAGGAGCAAAAUAAAUAUGUAGGACCGGGCCAUGCUACC", "K4 kissing-loop RNA reporter", "127 nM"),
    ("CGAUAGGGAAGUCGAUUGCUCACUGGUAAACGAGGACCGGUACGGCCGCCACUCGGGUCCAGUGAUGUUGGACUUUGUGGCGGGC [Edladian]", "K4 kissing-loop RNA reporter", "117 nM"),
    ("UAUCUAUGCUCGGCCGCCACUAGGACCGGGAUCUCUCUAGUGAUGUUAGUCUGAUCGGCCGCCACUAGGACCGGGAGUGUAGAUA [KL-SSTryp-B15 #DoubleAptamer]", "K4 kissing-loop RNA reporter", "101 nM"),
    ("GGUUUAUAAGAGGAUACCAGUACAAAUAAAGUACAUUAAUAGUAGAGUGAUGUUCUAAAGUACCCUUGGCAGCUUAGAUUAAGUU [ExTheophylB.F]", "K4 kissing-loop RNA reporter", "114 nM"),
    ("GUCUUACUAUAGGAUACCAGCAUGCAAGGAGUGAUGUUCCCGUCAUAUGAGGAGUACCGCUGCCCUUGGCAGCCUCUUGUAAGUU [theeternabot_sameState_KL_Theo_B_1]", "K4 kissing-loop RNA reporter", "502 nM"),
    ("ACGCCGAGGACGGCCGCCACUAUGACGAAGUCCGUUCCUAUUACUGCGCGAGUGAUGUUCACGACUAGGACCGGGUCUAUGAGCU [theeternabot_exclusion_KL_Trp_B_28]", "K4 kissing-loop RNA reporter", "775 nM"),
    ("CGCCGUAAGGCGGUCGCUCCCACUCCGGAAGGAGCGCCCGGAAGGGCAGGUAGGUCGCCGGAGUGAUGUUCCGGUGGAGGGACCG [#2 Exclusion - Arginine A Attempt #9 (Inspired by Omei)]", "K4 kissing-loop RNA reporter", "587 nM"),
    ("GUAUGUGGAAACACGUACUUGUAUCCUAGGAAGGAUAUGCGGAAACGCAGAAGGUCCACCGGCGAGUUUAUCCAGUGAUGUUGGA [Ex FMN A 10]", "K4 kissing-loop RNA reporter", "260 nM"),
]

[ask] Given the sequence AAGACCUGCAUCGAUACCAGCCCAGUGAUGUUGGGCUGCUCUCCAUGGGUGCCAGACACGGGCCCUUGGCAGCGAGGUAGGGCCC [Zazadilabi] , what is its reported apparent KD of K4 kissing-loop reporter?
[reply] 136 nM

[ask] Given the sequence UGAUACCAGACUGAUACCAGCUAGUGAUGUUAGCUGAUAAACAAACAGGCAAAGCCUGCUAGCCCUUGGCAGCAGUCUGGUAUCU [TheoBX 12 #SwitchBubble #StaticStem] , what is its reported apparent KD of K4 kissing-loop reporter?
[reply] 206 nM

[ask] Given the sequence ACACUAUCGUCAUAGACGGUAGUGAAAGCUGAGGAUAUGAGUGAUGUUAGAAGGUAGCAAGACUGUAUCGAAUAGAUACAGUCAA [FmnA 5 #K4BetweenAptamer #OpenEnded] , what is its reported apparent KD of K4 kissing-loop reporter?
[reply] 227 nM

[ask] Given the sequence AAUGCAUAGUGAAGGAGCGCGAUUUGCAGUGAUGUUGCAAAUUUAAACAAUCUUAUCUUUUCGCAGGUAGGUCGCACUAUGCAUA [JR_Nu_SSArginiB_Sub021] , what is its reported apparent KD of K4 kissing-loop reporter?
[reply] 94.1 nM

[ask] Given the sequence GCAGUGAUGUUGCUGAUGUACAGUGGGAUACGAGGACCGGUACGGCCGCCACUCGUACAGAACUUGUUAAUACAUCGAUAGGUGA [XIII] , what is its reported apparent KD of K4 kissing-loop reporter?
[reply] 702 nM

[ask] Given the sequence CAGUUCCGUAGUGAUGUUACGAUCUCUGAUACCAGACAACUCUAAGUCCCUUGGCAGCAGUCAUUUUGCUUAAUAUUUACUCAAA [#08 K4 Theophylline A Exclusion] , what is its reported apparent KD of K4 kissing-loop reporter?
[reply] 126 nM

[ask] Given the sequence ACCAUCAAAGAUGGCCAGGACUCCGCUGAUACCAGAGUGGAAACACUCCCUUGGCAGCAGGUGAGUGAUGUUCACAGUCCAUGGA [Omel KL Theo A SS B v4] , what is its reported apparent KD of K4 kissing-loop reporter?
[reply] 374 nM

[ask] Given the sequence GGACACUAGGAAACUAGUGUCUCAACUGAAGGAGCGUGAAUAGUCACAGGUAGGUCGCAGUUUGUUAGUGAUGUUGACAUGAGUU [#16 K4 Arginine A Same State] , what is its reported apparent KD of K4 kissing-loop reporter?
[reply] 302 nM

[ask] Given the sequence AGUGCACUGUCAGGAUAUAUACAGUGAUGUUGUGUAUGUCGGCAAGUCAAAGACUUGCCAUUCUGUGUAGAAGGGACUGUGUACA [#04 K4 FMN B Exclusion] , what is its reported apparent KD of K4 kissing-loop reporter?
[reply] 544 nM
